Tested on: OVCAR-4 ovarian
Test: NCI-60 one-dose screen, 48 h (100 = growth as untreated, 0 = no growth, -100 = all killed)
Conditions: 10 µM unless noted
The panel holds about 83,000 compounds, 20% with a hit somewhere; the sample as a whole holds those more often.
Catalogue of growth readings, one per entry.
Write down the numeric answer in % and omit the unit.

Answered examples (3):
| compound | growth [%] |
| --- | --- |
| O=C(O)[C@@H](Cc1ccc2ccccc2c1)NC(=O)n1c2ccccc2c2ccccc21 | 43.9 |
| CC(C)CCN(CCC(C)C)CC(O)c1cc2c(c3ccccc13)CCCC2 (centres undefined) | 78.2 |
| COc1ccc(NC(=O)Nc2ccc(OCCCCCC(=O)NO)cc2)cc1 | 122 |

Which value of growth has been reported for `C=C1C(=O)O[C@H]2[C@H]1CC/C(COC(=O)/C=C/C(=O)OC/C1=C/CC[C@@]3(C)O[C@H]3[C@H]3OC(=O)C(=C)[C@@H]3CC1)=C\CC[C@@]1(C)O[C@@H]21` in the records?
86.2
